# Test system: RAW-Dual (murine macrophage reporter line)
# METHOD: NF-kB reporter (SEAP) activity fold change vs agonist alone; higher = enhanced NF-kB activity
# CONDITION PARAMETERS: modulator concentration 10 µM; agonist: LPS 0.1 ug/mL
MEASURE: NF-kB reporter

Field: example entries. Status: answers known.
[
  {
    "COMPOUND": "NCCCC(=O)O",
    "NF-kB reporter": 0.974
  },
  {
    "COMPOUND": "Cc1cc(C(=O)NCc2sc(-c3ccccc3Cl)nc2C)c(C)o1",
    "NF-kB reporter": 1
  },
  {
    "COMPOUND": "CC(C)Cn1c(=O)n(C)c(=O)c2[nH]cnc21",
    "NF-kB reporter": 1.01
  },
  {
    "COMPOUND": "Cc1cccc(N2C(=O)C(=Cc3cccc([N+](=O)[O-])c3)SC2=S)c1C",
    "NF-kB reporter": 1.02
  },
  {
    "COMPOUND": "CCC(C(=O)N1CCN(CCn2ccnc2-c2ccccc2)CC1)c1ccccc1 (stereo not drawn)",
    "NF-kB reporter": 0.999
  },
  {
    "COMPOUND": "O=S(=O)(c1ccc(Cl)cc1)N1CCN(C2CC3CCC2C3)CC1 (stereo not drawn)",
    "NF-kB reporter": 0.994
  }
]

State the recorded NF-kB reporter for every item in the following list.
1. O=C(O)CCCCCN1C(=O)c2ccccc2C1=O
2. O=c1[nH]c(=O)n([C@H]2C[C@H](O)[C@@H](CO)O2)cc1F

[0.988, 1.02]

---

# System: RAW-Dual (murine macrophage reporter line)
# METHOD: IRF reporter (Lucia luciferase) activity fold change vs agonist alone; higher = enhanced IRF activity
# CONDITION PARAMETERS: modulator concentration 10 µM; agonist: MPLA […]
The label depends only on IRF reporter: fulfilled if it is at least 1, not fulfilled if it is smaller.

Kindly determine if IRF reporter recorded for CCOc1ccc2nc(SC(c3ccccc3)c3ccccc3)sc2c1 is above or exactly 1.
fulfilled

Has CCCCc1oc2ccc(NS(C)(=O)=O)cc2c1C(=O)c1ccc(OCCCN(CCCC)CCCC)cc1.Cl a recorded IRF reporter greater than or equal to 1?
fulfilled

I'd appreciate it if you could say whether CC1(C)OC(=O)C=CC2(C)C1CC(O)C1(C)C2CCC2(C)C(c3ccoc3)OC(=O)C3OC321 (stereo not given) has IRF reporter at least equal to 1.
fulfilled

Check if IRF reporter >= 1 (inclusive). Item: COc1cc(C=C2SC(=S)NC2=O)ccc1OCCC(C)C
fulfilled

State whether the measured IRF reporter reaches 1, counting equality as reaching it, for Cc1ccc(CC(=O)N2CCNC(=O)C2(C)C)cc1C
not fulfilled

---

Assignment: determine reported NF-kB reporter for the given compounds.
# System: RAW-Dual (murine macrophage reporter line)
# METHOD: NF-kB reporter (SEAP) activity fold change vs agonist alone; higher = enhanced NF-kB activity
# CONDITION PARAMETERS: modulator concentration 10 µM; agonist: MPLA […]
Numbers only.

Some solved cases for reference:
[
  {
    "COMPOUND": "Cc1ccc(-n2ncnc2-c2ccccc2C)cc1Cl",
    "STUDY TARGET": "RAW-Dual (murine macrophage reporter line)",
    "MEASURE": "NF-kB reporter",
    "REPORTED MEASUREMENT": 1.14
  },
  {
    "COMPOUND": "CC(C)Nc1cc(-c2c[nH]c(C(=O)N[C@H](CO)c3cccc(Cl)c3)c2)c(Cl)cn1",
    "STUDY TARGET": "RAW-Dual (murine macrophage reporter line)",
    "MEASURE": "NF-kB reporter",
    "REPORTED MEASUREMENT": 0.158
  },
  {
    "COMPOUND": "N[C@H]1CONC1=O",
    "STUDY TARGET": "RAW-Dual (murine macrophage reporter line)",
    "MEASURE": "NF-kB reporter",
    "REPORTED MEASUREMENT": 1.03
  },
  {
    "COMPOUND": "O=C(NCC1(c2ccc(F)cc2)CCOCC1)c1cnc2ccccc2n1",
    "STUDY TARGET": "RAW-Dual (murine macrophage reporter line)",
    "MEASURE": "NF-kB reporter",
    "REPORTED MEASUREMENT": 1.02
  },
  {
    "COMPOUND": "O=C(c1ccc2ccccc2n1)N1CCc2ncncc2C1",
    "STUDY TARGET": "RAW-Dual (murine macrophage reporter line)",
    "MEASURE": "NF-kB reporter",
    "REPORTED MEASUREMENT": 0.862
  },
  {
    "COMPOUND": "O=S(=O)(Cc1cccc(Cl)c1)N1C2CCC1CC(Oc1cccnc1)C2 (configuration not stated)",
    "STUDY TARGET": "RAW-Dual (murine macrophage reporter line)",
    "MEASURE": "NF-kB reporter",
    "REPORTED MEASUREMENT": 1.08
  }
]

Turning now to a further compound:
Check the records and state NF-kB reporter for c1ccc(C2=Nc3ccccc3N=C(c3ccccc3)c3ccccc32)cc1
1.08
